Consider the following compounds; for each one, report its clearance.
assay info: Clearance in mouse
Assay type: ADME, organism-based
settings: in vivo
Please format your answer as a value with the unit trailing.

>  <smiles record>
CC(=O)N1CCc2c(c(Nc3cccc(C(=O)NC(C)C)c3)nn2CC2CC2)C1

>  <recorded measurement>
43 mL/min/kg

$$$$

Kindly consider the entry below.
Q: Any idea what its clearance is? The compound is `CC(=O)N1CCc2c(c(Nc3ccc(-c4cnn(C)c4)cc3)nn2CC2CC2)C1`
Result: 118 mL/min/kg

----------
assay info: Oral bioavailability in nu/nu mouse at 100 mg/kg by LC-MS/MS analysis
Format: ADME, organism-based
settings: in vivo
outcome measure: bioavailability (%)
One number for each entry, in %.

Q: Fill in: bioavailability of `CC(=O)N1CCc2c(c(Nc3ccc(-c4cnn(C)c4)cc3F)nn2[C@@H]2CCOC2)C1` is ___
Result: 100

----------
tested on: CREB-binding protein/Histone acetyltransferase p300 (Homo sapiens, UniProt Q09472+Q92793)
assay info: Inhibition of Halo-tagged histone H3.3 binding to CBP/EP300 (unknown origin) expressed in HEK293 cells measured after overnight incubation by luciferase reporter gene based BRET assay
Type: cell-based
// assign Criterion met if IC50 falls strictly below 1000 nM, else Criterion not met (ties count as Criterion not met)

Worked cases, answers included:
>  <smiles record>
CCCNC(=O)c1cccc(Nc2nn(CC3CC3)c3c2CN(C(C)=O)CC3)c1

>  <category label>
Criterion not met

$$$$
>  <smiles record>
CC(=O)N1CCc2c(c(Nc3cccc(-c4ccccn4)c3)nn2CC2CC2)C1

>  <category label>
Criterion met

$$$$
>  <smiles record>
CC(=O)N1CCc2c(c(Nc3cccc(-c4ccccc4)c3)nn2CC2CC2)C1

>  <category label>
Criterion not met

$$$$
>  <smiles record>
CC(=O)N1CCc2c(c(Nc3cccc(C(=O)NC(C)C)c3)nn2CC2CC2)C1

>  <category label>
Criterion met

$$$$
>  <smiles record>
CCNC(=O)c1cccc(Nc2nn(CC3CC3)c3c2CN(C(C)=O)CC3)c1

>  <category label>
Criterion not met

$$$$

Q: IC50 strictly < 1000 nM for this compound? `CC(=O)N1CCc2c(c(Nc3ccc(-c4cnn(C)c4)cc3)nn2C2COC2)C1`
Result: Criterion not met

----------
tested on: CREB-binding protein (Homo sapiens)
Sequence (Q92793 whole entry): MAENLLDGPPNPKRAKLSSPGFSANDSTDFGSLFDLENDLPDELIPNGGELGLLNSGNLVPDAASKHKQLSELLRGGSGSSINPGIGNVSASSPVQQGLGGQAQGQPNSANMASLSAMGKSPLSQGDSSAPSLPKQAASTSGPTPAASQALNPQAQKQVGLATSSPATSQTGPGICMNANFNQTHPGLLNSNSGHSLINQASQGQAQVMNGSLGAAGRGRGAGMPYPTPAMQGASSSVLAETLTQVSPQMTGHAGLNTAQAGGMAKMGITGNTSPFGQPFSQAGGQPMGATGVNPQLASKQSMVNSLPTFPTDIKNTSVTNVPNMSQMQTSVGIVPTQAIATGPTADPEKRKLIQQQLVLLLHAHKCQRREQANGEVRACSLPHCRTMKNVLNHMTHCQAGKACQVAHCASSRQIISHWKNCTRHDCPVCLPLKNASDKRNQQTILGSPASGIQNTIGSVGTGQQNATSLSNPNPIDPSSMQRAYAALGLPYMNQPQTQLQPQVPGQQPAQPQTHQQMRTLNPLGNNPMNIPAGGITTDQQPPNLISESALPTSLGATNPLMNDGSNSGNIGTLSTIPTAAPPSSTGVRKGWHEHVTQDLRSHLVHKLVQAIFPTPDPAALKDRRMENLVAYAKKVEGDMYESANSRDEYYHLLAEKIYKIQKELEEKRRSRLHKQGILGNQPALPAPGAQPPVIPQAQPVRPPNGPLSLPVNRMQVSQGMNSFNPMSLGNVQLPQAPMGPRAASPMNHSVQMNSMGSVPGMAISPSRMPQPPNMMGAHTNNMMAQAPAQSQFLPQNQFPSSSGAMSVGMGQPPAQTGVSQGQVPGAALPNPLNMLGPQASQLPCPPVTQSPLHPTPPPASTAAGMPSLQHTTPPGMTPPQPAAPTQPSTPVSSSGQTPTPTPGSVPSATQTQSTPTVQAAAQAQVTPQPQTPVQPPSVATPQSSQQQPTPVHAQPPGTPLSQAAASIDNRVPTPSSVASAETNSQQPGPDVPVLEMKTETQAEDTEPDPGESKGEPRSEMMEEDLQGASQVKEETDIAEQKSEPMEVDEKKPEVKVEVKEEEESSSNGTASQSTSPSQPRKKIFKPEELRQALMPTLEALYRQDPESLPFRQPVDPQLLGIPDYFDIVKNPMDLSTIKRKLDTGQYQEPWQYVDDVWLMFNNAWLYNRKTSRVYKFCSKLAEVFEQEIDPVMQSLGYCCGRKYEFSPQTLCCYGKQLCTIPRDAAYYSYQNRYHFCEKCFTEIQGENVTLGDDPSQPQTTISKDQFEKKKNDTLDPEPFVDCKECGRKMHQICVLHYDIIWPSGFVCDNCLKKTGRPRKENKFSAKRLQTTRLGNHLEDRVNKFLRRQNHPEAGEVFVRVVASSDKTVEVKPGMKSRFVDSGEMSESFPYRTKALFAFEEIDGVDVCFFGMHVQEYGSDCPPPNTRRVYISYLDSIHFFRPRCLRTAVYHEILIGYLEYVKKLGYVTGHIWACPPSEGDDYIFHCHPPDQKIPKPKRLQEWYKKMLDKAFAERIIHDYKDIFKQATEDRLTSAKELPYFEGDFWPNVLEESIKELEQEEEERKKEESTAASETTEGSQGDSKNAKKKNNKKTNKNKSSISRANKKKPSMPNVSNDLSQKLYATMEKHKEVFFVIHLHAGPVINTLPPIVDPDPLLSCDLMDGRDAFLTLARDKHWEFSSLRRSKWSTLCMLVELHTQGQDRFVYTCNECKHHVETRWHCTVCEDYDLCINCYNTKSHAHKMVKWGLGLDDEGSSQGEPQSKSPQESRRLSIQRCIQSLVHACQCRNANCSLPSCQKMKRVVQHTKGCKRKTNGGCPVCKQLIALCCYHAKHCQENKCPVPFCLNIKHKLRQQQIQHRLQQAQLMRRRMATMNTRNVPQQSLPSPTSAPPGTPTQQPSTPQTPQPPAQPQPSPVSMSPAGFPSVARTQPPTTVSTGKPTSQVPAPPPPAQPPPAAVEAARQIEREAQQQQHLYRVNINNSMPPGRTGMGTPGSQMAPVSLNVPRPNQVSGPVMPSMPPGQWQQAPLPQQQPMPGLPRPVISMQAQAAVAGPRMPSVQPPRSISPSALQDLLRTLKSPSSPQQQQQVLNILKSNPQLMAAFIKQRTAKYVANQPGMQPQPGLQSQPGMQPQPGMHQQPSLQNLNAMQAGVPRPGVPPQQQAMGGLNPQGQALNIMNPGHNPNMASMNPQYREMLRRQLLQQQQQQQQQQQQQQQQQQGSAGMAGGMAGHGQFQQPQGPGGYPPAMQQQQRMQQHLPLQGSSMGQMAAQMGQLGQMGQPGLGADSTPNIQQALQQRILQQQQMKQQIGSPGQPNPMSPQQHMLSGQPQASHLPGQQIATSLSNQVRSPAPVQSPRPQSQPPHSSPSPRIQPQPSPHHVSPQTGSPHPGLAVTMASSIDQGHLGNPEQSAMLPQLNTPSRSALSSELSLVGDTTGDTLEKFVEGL
assay info: Displacement of biotinylated ligand from CBP (unknown origin) by TR-FRET assay
outcome measure: IC50 (nM)
One number for each entry, in nM.

>  <smiles record>
CCCOc1ccc(CCc2nc3cc(-c4c(C)noc4C)ccc3n2CCN2CCOCC2)cc1

>  <output unit>
nM

>  <IC50>
190

$$$$

Q: Form: Entry = `CCC(=O)N1CCOc2c(cc(-c3ccc(OC)c(OC)c3)cc2OC[C@H]2CCCN(C)C2)C1` | System = CREB-binding protein (Homo sapiens) | IC50 = ____
Result: 440

----------
I'd appreciate it if you could supply IC50 values for the items below.
tested on: CREB-binding protein (Homo sapiens)
assay info: Inhibition of Halo-tagged histone H3.3 binding to NanoLuc luciferase conjugated CBP (unknown origin) expressed in HEK293 cells after overnight incubation by BRET assay
Format: cell-based

>  <smiles record>
CCCOc1ccc(CCc2nc3cc(-c4c(C)noc4C)ccc3n2CCN2CCOCC2)cc1

>  <recorded measurement>
> 10 µM

$$$$

Now consider a different molecule.
Q: Quick check: IC50 on CREB-binding protein (Homo sapiens), item `CCC(=O)N1CCOc2c(cc(-c3ccc(OC)c(OC)c3)cc2OC[C@H]2CCCN(C)C2)C1` ?
Result: > 10 µM

----------
assay info: Oral bioavailability in mouse
Format: ADME, organism-based
settings: in vivo
outcome measure: bioavailability (%)
Give bare numbers, in %.

Q: Item `CC(=O)N1CCc2c(c(Nc3cccc(C(=O)NC(C)C)c3)nn2CC2CC2)C1` has what recorded bioavailability?
Result: 5

----------
assay info: Half life in nu/nu mouse at 1 mg/kg, iv or 100 mg/kg, po by LC-MS/MS analysis
Assay type: ADME, organism-based
settings: in vivo
outcome measure: half-life (h)
Numbers only, in h.

Q: What value of measured half-life is listed for `CC(=O)N1CCc2c(c(Nc3ccc(-c4cnn(C)c4)cc3F)nn2[C@@H]2CCOC2)C1` ?
Result: 2

----------
Answer each item with its documented IC50.
tested on: Bromodomain-containing protein 4 (Homo sapiens, UniProt O60885)
assay info: Displacement of biotinylated ligand from recombinant His-tagged BRD4 bromodomain-1 (unknown origin) measured after 10 mins by TR-FRET assay
One number for each entry, in µM.

Worked examples follow.
>  <molecule>
CCNC(=O)c1cccc(Nc2nn(CC3CC3)c3c2CN(C(C)=O)CC3)c1

>  <outcome measure>
IC50

>  <recorded measurement>
7.7

$$$$
>  <molecule>
CC(=O)N1CCc2[nH]nc(Nc3cccc(C(F)(F)F)c3)c2C1

>  <outcome measure>
IC50

>  <recorded measurement>
18

$$$$

Batch lookup, IC50 per entry.
1. CC(=O)N1CCc2c(c(Nc3cccc(-c4ccccc4)c3)nn2CC2CC2)C1
2. CC(=O)N1CCc2c(c(Nc3cccc(-c4ccnn4C)c3)nn2CC2CC2)C1
3. CC(=O)N1CCc2c(c(Nc3cccc(-c4cnoc4)c3)nn2CC2CC2)C1

Result:
1: 4.6; 2: 3.7; 3: 8.6

Please give IC50 for each item listed below.
1. CC(=O)N1CCc2c(c(Nc3cccc(-c4cnn(C)c4)c3)nn2CC2CC2)C1
2. CC(=O)N1CCc2c(c(Nc3cccc(C)c3)nn2Cc2ccccn2)C1
3. COC(=O)c1cccc(Nc2n[nH]c3c2CN(C(C)=O)CC3)c1
4. CC(=O)N1CCc2c(c(Nc3cccc(C)c3)nn2CC2CC2)C1

Result:
[4.2, 7.3, 18, 13]

Field: IC50. Fill in for each record below.
1. CC(=O)N1CCc2c(c(Nc3ccc(-c4cnn(C)c4)cc3)nn2C2CCOC2)C1 (single isomer, unassigned; 57)
2. CC(=O)N1CCc2c(c(Nc3cccc(-c4cn[nH]c4)c3)nn2CC2CC2)C1
3. CC(=O)N1CCc2c(c(Nc3cccc(-c4ccn[nH]4)c3)nn2CC2CC2)C1
4. CC(=O)N1CCc2c(c(Nc3cccc(C)c3)nn2Cc2ccncc2)C1

Result:
1. 8.5
2. 4.6
3. 3.8
4. 5.9

----------
assay info: Apparent permeability of the compound across apical side to basolateral side in MDCK cells at 10 uM measured after 180 mins by LC-MS/MS analysis
Type: ADME, cell-based, Canis lupus familiaris
settings: dog
outcome measure: Papp A→B at 3 h, 10 µM (nm/s)
One number for each entry, in nm/s.

// known answers, use as guide
>  <smiles record>
CC(=O)N1CCc2c(c(Nc3cccc(-c4ccn[nH]4)c3)nn2CC2CC2)C1

>  <output unit>
nm/s

>  <Papp A→B at 3 h, 10 µM>
63

$$$$
>  <smiles record>
CC(=O)N1CCc2c(c(Nc3cccc(C(=O)NC(C)C)c3)nn2CC2CC2)C1

>  <output unit>
nm/s

>  <Papp A→B at 3 h, 10 µM>
24

$$$$
>  <smiles record>
CC(=O)N1CCc2c(c(Nc3cccc(-c4cccnc4)c3)nn2CC2CC2)C1

>  <output unit>
nm/s

>  <Papp A→B at 3 h, 10 µM>
240

$$$$
>  <smiles record>
CC(=O)N1CCc2c(c(Nc3cccc(-c4ccccn4)c3)nn2CC2CC2)C1

>  <output unit>
nm/s

>  <Papp A→B at 3 h, 10 µM>
150

$$$$

Could you now look at the following molecule, please?
Q: Can you look up the measured Papp A→B at 3 h, 10 µM of `CC(=O)N1CCc2c(c(Nc3cccc(-c4ccncc4)c3)nn2CC2CC2)C1` for me?
Result: 200

----------
tested on: Bromodomain-containing protein 4 (Homo sapiens)
assay info: Displacement of biotinylated ligand from BRD4 bromodomain-1 (unknown origin) by TR-FRET assay
outcome measure: IC50 (µM)
Answers are plain numbers, in µM.

>  <smiles record>
COc1ccc(CCc2nc3cc(-c4c(C)noc4C)ccc3n2C[C@H](C)N2CCOCC2)cc1Cl

>  <IC50 (µM)>
3.2

$$$$

Q: Fill in the blank: the reported IC50 of `CCCOc1ccc(CCc2nc3cc(-c4c(C)noc4C)ccc3n2CCN2CCOCC2)cc1` is ____.
Result: 2.9

----------
assay info: Apparent permeability of the compound across apical side to basolateral side in MDCK cells at 10 uM measured after 180 mins by LC-MS/MS analysis
Format: ADME, cell-based, Canis lupus familiaris
settings: dog
outcome measure: Papp A→B at 3 h, 10 µM (×10⁻⁶ cm/s)
Answers are plain numbers, in ×10⁻⁶ cm/s.

Example compounds with recorded Papp A→B at 3 h, 10 µM:
>  <smiles record>
CC(=O)N1CCc2c(c(Nc3cccc(-c4ccccc4)c3)nn2CC2CC2)C1

>  <output unit>
×10⁻⁶ cm/s

>  <Papp A→B at 3 h, 10 µM>
26

$$$$
>  <smiles record>
CC(=O)N1CCc2c(c(Nc3cccc(-c4cnn(C)c4)c3)nn2CC2CC2)C1

>  <output unit>
×10⁻⁶ cm/s

>  <Papp A→B at 3 h, 10 µM>
18

$$$$
>  <smiles record>
CC(=O)N1CCc2c(c(Nc3cccc(-c4ccnn4C)c3)nn2CC2CC2)C1

>  <output unit>
×10⁻⁶ cm/s

>  <Papp A→B at 3 h, 10 µM>
15

$$$$

Please look at the items below and tell me Papp A→B at 3 h, 10 µM for each one, in order.
1. CC(=O)N1CCc2c(c(Nc3ccc(-c4cnn(C)c4)cc3F)nn2[C@@H]2CCOC2)C1
2. CC(=O)N1CCc2c(c(Nc3cccc(-c4cn[nH]c4)c3)nn2CC2CC2)C1

Result:
15
7.3
